System: P. Aeruginosa A5007
Procedure summary: Acute mouse protection test
Assay type: in vivo
Condition details: mice infected intraperitoneally with P. Aeruginosa A5007, dosed at 1 and 5 hours post-infection
The following compounds are listed with their measured Oral (ED50) values.
State just the number; it will be interpreted in mg/kg/day.

Some compounds with known Oral (ED50) results, for comparison:
Compound | Oral (ED50) [mg/kg/day]
CCC[C@H](NC(=O)CNC(=O)CN)C(=O)NC1CCN(c2nc3c(cc2F)c(=O)c(C(=O)O)cn3-c2ccc(F)cc2F)C1 (stereo partly shown) | 3.3
CCCC(N)C(=O)NC1CCN(c2nc3c(cc2F)c(=O)c(C(=O)O)cn3C2CC2)C1 (stereo not shown) [Example 26p] | 9.1
Cl.NCC(=O)N[C@@H](Cc1ccccc1)C(=O)NC1CCN(c2nc3c(cc2F)c(=O)c(C(=O)O)cn3-c2ccc(F)cc2F)C1 (stereo partly shown) | 27.3

Let's switch to this compound now.
So, CS(=O)(=O)CC[C@H](N)C(=O)NC1CCN(c2nc3c(cc2F)c(=O)c(C(=O)O)cn3-c2ccc(F)cc2F)C1.Cl (stereo partly shown) [Example 31c] ? Its Oral (ED50) was 7.8

* * *

Tested on: Stap. Aureus CMX 553
Procedure summary: Second in vitro test, MIC in Brain Heart Infusion Broth (BHIB)
Each record here notes measured MIC.
Be sure to follow the number with its unit.

MIC measured on CCCC(N)C(=O)NC1CCN(c2cc3c(cc2F)c(=O)c(C(=O)O)cn3-c2ccc(F)cc2F)C1 (centres unmarked) [Example 26b] = 0.39 µg/mL

* * *

System: E. Coli Juhl
Procedure summary: Acute mouse protection test
Type: in vivo
Condition details: mice infected intraperitoneally with E. Coli JUHL, dosed at 1 and 5 hours post-infection
Experimental endpoint: Oral (ED50) (mg/kg/day)
Value expressed in mg/kg/day; do not type the unit.

Reported Oral (ED50) of NCC(=O)NC1CCN(c2nc3c(cc2F)c(=O)c(C(=O)O)cn3-c2ccc(F)cc2F)C1 (stereo not shown) : 5.0

Reported Oral (ED50) of CC(N)C(=O)NC1CCN(c2c(F)cc3c(=O)c(C(=O)O)cn(C4CC4)c3c2F)C1 (stereo not shown) [Example 26s] : 1.8

Reported Oral (ED50) ( CC(N)C(=O)NC1CCN(c2nc3c(cc2F)c(=O)c(C(=O)O)cn3-c2ccc(F)cc2F)C1 (stereo not shown) ) = 2.0

Data point: CS(=O)(=O)CC[C@H](N)C(=O)NC1CCN(c2nc3c(cc2F)c(=O)c(C(=O)O)cn3-c2ccc(F)cc2F)C1.Cl (stereo partly shown) [Example 31c] ; Oral (ED50) = 1.8

The recorded Oral (ED50) for CC(C)CC(N)C(=O)NC1CCN(c2nc3c(cc2F)c(=O)c(C(=O)O)cn3C2CC2)C1 (stereo not shown) [Example 26o] is 1.2

Quick note, Oral (ED50) for CCCC(N)C(=O)NC1CCN(c2cc3c(cc2F)c(=O)c(C(=O)O)cn3C2CC2)C1 (stereo not shown) [Example 26l] landed at 9.4

# Oral (ED50) of Cl.NCC(=O)N[C@@H](Cc1ccccc1)C(=O)NC1CCN(c2nc3c(cc2F)c(=O)c(C(=O)O)cn3-c2ccc(F)cc2F)C1 (stereo partly shown) = 1.8

* * *

Tested on: Strep pyogenes EES 61
Procedure summary: Second in vitro test, MIC in Brain Heart Infusion Broth (BHIB)
Experimental endpoint: log10 MIC (log10 of the value in µg/mL)
In our notation, the value equals log10 of MIC in µg/mL.

Example entries and their recorded answers appear below.
Compound | log10 MIC
Cl.NCC(=O)N[C@@H](Cc1ccccc1)C(=O)NC1CCN(c2cc3c(cc2F)c(=O)c(C(=O)O)cn3-c2ccc(F)cc2F)C1 (some centres unmarked) [Example 26jj] | 1.51
CCC[C@H](NC(=O)[C@@H](N)CCC)C(=O)NC1CCN(c2nc3c(cc2F)c(=O)c(C(=O)O)cn3-c2ccc(F)cc2F)C1.Cl (some centres unmarked) [Example 3b] | 1.10
NCC(=O)NC1CCN(c2nc3c(cc2F)c(=O)c(C(=O)O)cn3-c2ccc(F)cc2F)C1 (centres unmarked) [Example 7] | -0.11
Cl.Cl.NCCCC[C@H](N)C(=O)NC1CCN(c2nc3c(cc2F)c(=O)c(C(=O)O)cn3-c2ccc(F)cc2F)C1 (some centres unmarked) [Example 46] | 2.00
CCCC(N)C(=O)NC1CCN(c2nc3c(cc2F)c(=O)c(C(=O)O)cn3C2CC2)C1 (centres unmarked) [Example 26p] | 0.49
CC(C)CC(N)C(=O)NC1CCN(c2nc3c(cc2F)c(=O)c(C(=O)O)cn3C2CC2)C1 (centres unmarked) [Example 26o] | 0.49
CCC[C@H](N)C(=O)NC1CCN(c2nc3c(cc2F)c(=O)c(C(=O)O)cn3CC)C1 (some centres unmarked) [Example 26ff] | 0.79
Cl.Cl.N[C@@H](Cc1c[nH]cn1)C(=O)NC1CCN(c2nc3c(cc2F)c(=O)c(C(=O)O)cn3-c2ccc(F)cc2F)C1 (some centres unmarked) [Example 44c] | 1.51
CC(C)CC(N)C(=O)NC1CCN(c2nc3c(cc2F)c(=O)c(C(=O)O)cn3-c2ccc(F)cc2F)C1 (centres unmarked) [Example 21] | 0.79
CCC[C@H](NC(=O)CNC(=O)CN)C(=O)NC1CCN(c2nc3c(cc2F)c(=O)c(C(=O)O)cn3-c2ccc(F)cc2F)C1 (some centres unmarked) [Example 30] | 2.00

Next compound, please.
Memo: CS(=O)(=O)CC[C@H](N)C(=O)NC1CCN(c2nc3c(cc2F)c(=O)c(C(=O)O)cn3-c2ccc(F)cc2F)C1.Cl (some centres unmarked) [Example 31c] , reported log10 MIC: 1.40

* * *

Test system: E. Coli Juhl
Procedure summary: Acute mouse protection test
Assay type: in vivo
Condition details: mice infected intraperitoneally with E. Coli JUHL, dosed at 1 and 5 hours post-infection
Experimental endpoint: Oral (ED50)
Could you write the number and then its unit?

// below: answered compounds
Compound | Oral (ED50)
CCC[C@H](NC(=O)[C@@H](N)CCC)C(=O)NC1CCN(c2nc3c(cc2F)c(=O)c(C(=O)O)cn3-c2ccc(F)cc2F)C1.Cl (stereo partly shown) [Example 3b] | 4.0 mg/kg/day
CCCC(N)C(=O)NC1CCN(c2c(F)cc3c(=O)c(C(=O)O)cn(C4CC4)c3c2F)C1 (stereo not shown) [Example 26r] | 2.3 mg/kg/day
CC(N)C(=O)NC(C)C(=O)NC1CCN(c2nc3c(cc2F)c(=O)c(C(=O)O)cn3-c2ccc(F)cc2F)C1 (stereo not shown) [Example 15] | 2.0 mg/kg/day

Next compound, Oral (ED50) to be filled in.
So, NC(Cc1ccccc1)C(=O)NC1CCN(c2nc3c(cc2F)c(=O)c(C(=O)O)cn3-c2ccc(F)cc2F)C1 (stereo not shown) [Example 5] ? Its Oral (ED50) was 3.5 mg/kg/day

* * *

System: P. Aeruginosa A5007
Procedure summary: Acute mouse protection test
Format: in vivo
Condition details: mice infected intraperitoneally with P. Aeruginosa A5007, dosed at 1 and 5 hours post-infection
Experimental endpoint: Oral (ED50) (mg/kg/day)
# output: bare number, implied unit mg/kg/day

Reference set, count: 3
Molecule | Oral (ED50) (mg/kg/day)
CCC[C@H](NC(=O)[C@@H](N)CCC)C(=O)NC1CCN(c2nc3c(cc2F)c(=O)c(C(=O)O)cn3-c2ccc(F)cc2F)C1.Cl (stereo partly shown) [Example 3b] | 9.1
Cl.Cl.N[C@@H](Cc1c[nH]cn1)C(=O)NC1CCN(c2nc3c(cc2F)c(=O)c(C(=O)O)cn3-c2ccc(F)cc2F)C1 (stereo partly shown) [Example 44c] | 51.3
CC(N)C(=O)NC(C)C(=O)NC1CCN(c2nc3c(cc2F)c(=O)c(C(=O)O)cn3-c2ccc(F)cc2F)C1 (stereo not shown) [Example 15] | 9.1

Reported Oral (ED50) of CC(N)C(=O)NC1CCN(c2c(F)cc3c(=O)c(C(=O)O)cn(C4CC4)c3c2F)C1 (stereo not shown) [Example 26s] : 5.0

Record summary for CC(C)CC(N)C(=O)NC1CCN(c2nc3c(cc2F)c(=O)c(C(=O)O)cn3C2CC2)C1 (stereo not shown) [Example 26o] : reported Oral (ED50) = 6.2

Lab book: Oral (ED50) of Cl.N[C@@H](CC(=O)O)C(=O)NC1CCN(c2nc3c(cc2F)c(=O)c(C(=O)O)cn3-c2ccc(F)cc2F)C1 (stereo partly shown) [Example 45] noted as 13.0

Looking up CCCC(N)C(=O)NC1CCN(c2c(F)cc3c(=O)c(C(=O)O)cn(C4CC4)c3c2F)C1 (stereo not shown) [Example 26r] , I see its Oral (ED50) listed as 7.3

* * *

Tested on: Stap. Aureus CMX 553
Procedure summary: Second in vitro test, MIC in Brain Heart Infusion Broth (BHIB)
A collection of molecules and their measured MIC
Give the value, in units of µg/mL, as a plain number.

Molecule | MIC (µg/mL)
CC(N)C(=O)NC1CCN(c2nc3c(cc2F)c(=O)c(C(=O)O)cn3-c2ccc(F)cc2F)C1 (stereo not shown) | 2.0

Reported MIC for CC(C)CC(N)C(=O)NC1CCN(c2nc3c(cc2F)c(=O)c(C(=O)O)cn3C2CC2)C1 (stereo not shown) [Example 26o] was 0.39

Lab note: measured MIC of Cl.Cl.NCCCC[C@H](N)C(=O)NC1CCN(c2nc3c(cc2F)c(=O)c(C(=O)O)cn3-c2ccc(F)cc2F)C1 (stereo partly shown) was 100

Input Cl.Cl.N[C@@H](Cc1c[nH]cn1)C(=O)NC1CCN(c2nc3c(cc2F)c(=O)c(C(=O)O)cn3-c2ccc(F)cc2F)C1 (stereo partly shown) [Example 44c] . Output MIC: 16

The molecule CC(N)C(=O)NC(Cc1ccccc1)C(=O)NC1CCN(c2nc3c(cc2F)c(=O)c(C(=O)O)cn3-c2ccc(F)cc2F)C1 (stereo not shown) showed MIC equal to 16.0

Quick note, MIC for CS(=O)(=O)CC[C@H](N)C(=O)NC1CCN(c2nc3c(cc2F)c(=O)c(C(=O)O)cn3-c2ccc(F)cc2F)C1.Cl (stereo partly shown) [Example 31c] landed at 25

Form: molecule = Cl.NCC(=O)N[C@@H](Cc1ccccc1)C(=O)NC1CCN(c2cc3c(cc2F)c(=O)c(C(=O)O)cn3-c2ccc(F)cc2F)C1 (stereo partly shown) [Example 26jj] ; MIC = 16

Sourced from patent US5057523A
